Molecular target: human CCR8 (human, UniProt P51685 1-355)
Assay: cell-based or functional assay
measurement.name: hCCL1 (100 nM) residual response, Protocol #3, mAb 0.05 µg/mL (%)

binder: 3-32 (antibody, V domains shown) VH: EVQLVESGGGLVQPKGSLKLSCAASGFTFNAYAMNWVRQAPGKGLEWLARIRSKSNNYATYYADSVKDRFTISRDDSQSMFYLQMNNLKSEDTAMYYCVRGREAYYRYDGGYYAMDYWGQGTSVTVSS VL: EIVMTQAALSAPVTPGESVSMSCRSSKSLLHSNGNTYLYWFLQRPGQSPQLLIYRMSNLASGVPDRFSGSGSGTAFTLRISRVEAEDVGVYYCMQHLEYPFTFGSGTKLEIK
reading: 73
//
binder: 3-81 (antibody, human IgG1, kappa, V domains shown, humanized, human IgG1 kappa) VH: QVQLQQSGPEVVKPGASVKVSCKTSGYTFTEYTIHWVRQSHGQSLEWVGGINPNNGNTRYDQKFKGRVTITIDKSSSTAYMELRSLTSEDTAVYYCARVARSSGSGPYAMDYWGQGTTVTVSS VL: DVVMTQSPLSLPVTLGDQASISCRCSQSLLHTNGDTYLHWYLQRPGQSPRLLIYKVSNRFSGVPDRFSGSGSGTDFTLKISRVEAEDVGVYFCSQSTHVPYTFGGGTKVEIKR
reading: 73
//
binder: 3-45 (antibody, V domains shown) VH: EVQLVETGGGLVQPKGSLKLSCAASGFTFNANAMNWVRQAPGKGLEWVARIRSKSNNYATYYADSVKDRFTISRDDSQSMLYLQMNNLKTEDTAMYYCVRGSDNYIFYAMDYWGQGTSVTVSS VL: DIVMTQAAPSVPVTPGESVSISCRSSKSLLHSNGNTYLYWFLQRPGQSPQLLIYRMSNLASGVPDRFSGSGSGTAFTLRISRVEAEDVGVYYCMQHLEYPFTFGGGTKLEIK
reading: 86
